Just for reference, patent US20070082055A1 is where these values come from.

For each record, write down the corresponding level of desethyl-CNS.
conditions: before storage
Give bare numbers, in % w/w by HPLC.

Answered cases to consult:
>>> readoutnumber("CCOc1nc2cccc(C(=O)OC(C)OC(=O)OC3CCCCC3)c2n1Cc1ccc(-c2ccccc2-c2nnn[nH]2)cc1 (stereo not shown) [Product, candesartan cilexetil]")
0.05
>>> readoutnumber("CCOc1nc2cccc(C(=O)OC(C)OC(=O)OC3CCCCC3)c2n1Cc1ccc(-c2ccccc2-c2nnn[nH]2)cc1 (stereo not shown) [stable micronized candesartan Form I, candesartan cilexetil]")
0.03
>>> readoutnumber("CCOc1nc2cccc(C(=O)OC(C)OC(=O)OC3CCCCC3)c2n1Cc1ccc(-c2ccccc2-c2nnn[nH]2)cc1 (stereo not shown) [micronized material, candesartan cilexetil]")
0.04

Attention now shifts to the item below.
Exam item: Which level of desethyl-CNS is listed for CCOc1nc2cccc(C(=O)OC(C)OC(=O)OC3CCCCC3)c2n1Cc1ccc(-c2ccccc2-c2nnn[nH]2)cc1 (stereo not shown) [micronized CNS-Cryst, candesartan cilexetil] ?
Marked response: 0.24
